Provenance of the data: paper PMC7596504

system: T1, MORC4 CW domain (aa 417-475) (human, UniProt Q8TE76 417-475)
T1 construct: CW-type zinc finger domain of human MORC4, aa 417-475, cloned into pGEX 6p-1; Uniformly 15N-labelled in the NMR experiments; unlabelled protein was further purified by size exclusion chromatography; also called WT MORC4 CW domain; source: E. coli Rosetta2 (DE3) pLysS or BL21 (DE3) RIL, purified (glutathione agarose, GST tag cleaved)
T1 sequence (looked up): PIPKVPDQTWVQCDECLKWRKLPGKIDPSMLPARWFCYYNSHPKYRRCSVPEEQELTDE
assay overview: other fluorescence titration; tryptophan fluorescence, 25 °C; 0.5-1 µM ATPaseCW or CW in 20 mM Tris pH 6.8, 100 mM NaCl, 2 mM DTT, increasing histone peptide
condition notes: both partners purified
Where no end group is shown, it is not given here. Me3 = trimethyl
quantity: Kd (nM)

(P) ARTK(Me3)QTARKSTG (peptide, UniProt P68431 2-13, looked up, N-terminal tail of histone H3, aa 1-12) [histone H3K4me3 peptide (aa 1-12 of H3)]
(Q) ARTKQTARKSTG (peptide, UniProt P68431 2-13, looked up, N-terminal tail of histone H3, aa 1-12; also called H3K4; unmodified H3 peptide) [unmodified histone H3 peptide (aa 1-12 of H3)]
Identify the entry with the smaller Kd: P or Q . Mark your selection by writing its label. P
